Each recorded value in this set is attributed to PubChem BioAssay (Tox21).

assay: qHTS assay to identify small molecule that activate the aryl hydrocarbon receptor (AhR) signaling pathway - cell viability counter screen (AID 743086); settings: HepG2-AhR-luc viability, CellTiter-Fluor, 24 h; series mostly up to 70.3 µM; note: nearly all actives have a fitted effect of over 45% in size
Records with an inconclusive call do not appear. The source made the active and inactive calls. Calls come from the whole dose curve; as a rule, active = well fitted cell-killing curve with a large enough effect in the repeat runs; inconclusive = weak or mixed curves, or effect the other way; inactive = flat fitted curve, though single readings scatter.
Classes used: 1 = active, 0 = inactive

inputSmiles | class
O=C(O)C1(C(=O)Nc2ccc(Cl)cc2Cl)CC1 | 0
CCCn1cnc2c1c(=O)n(CCCCC(C)=O)c(=O)n2C | 0
CCn1cc(C(=O)O)c(=O)c2cnc(N3CCNCC3)nc21 | 0
Nc1ccccc1S(=O)(=O)c1ccccc1 | 0
CCCOC(C(=O)OC1CCN(C)CC1)(c1ccccc1)c1ccccc1 | 1
NC(N)=NCCC[C@H](N)C(=O)O | 0
CCCCCCCC#N | 0
NC(=O)C(c1ccccc1)(c1ccccc1)[C@@H]1CCN(CCc2ccc3c(c2)CCO3)C1 | 0
COC(C)OC | 0
c1cc(CCCc2ccncc2)ccn1 | 0
Nc1c(CC(=O)O)cccc1C(=O)c1ccc(Br)cc1 | 0
CCCCCCCCCCCCN1CCCCCC1=O | 0
Nc1ccc(S(=O)(=O)Nc2ccccc2)cc1 | 0
CCC(=O)O[C@]1(C(=O)CCl)[C@@H](C)C[C@H]2[C@@H]3CCC4=CC(=O)C=C[C@]4(C)[C@@]3(F)[C@@H](O)C[C@@]21C | 0
C#C[C@]1(O)CC[C@H]2[C@@H]3CCc4cc(OC5CCCC5)ccc4[C@H]3CC[C@@]21C | 0
CC(C)C[C@H]1C(=O)N2CCC[C@H]2[C@]2(O)O[C@](NC(=O)[C@@H]3C=C4c5cccc6[nH]c(Br)c(c56)C[C@H]4N(C)C3)(C(C)C)C(=O)N12 | 1
CC(=O)c1cccc([N+](=O)[O-])c1 | 0
CCC(C)(C)CC | 0
CCCCC1=NC2(CCCC2)C(=O)N1Cc1ccc(-c2ccccc2-c2nn[nH]n2)cc1 | 0
O=[N+]([O-])c1ccc2[nH]ncc2c1 | 0
C/C=C/C(=O)CC | 0
CCOc1ccc(N)c([N+](=O)[O-])c1 | 0
C=C(C)C(=O)OCC | 0
c1ccc(CNCCNCc2ccccc2)cc1 | 0
CN(C)CCCN1c2ccccc2Sc2ccccc21 | 0
